Tested Target: T1, human DLL3 (ACRO, DLL3-H52H4) (human, UniProt Q9NYJ7 27-492)
T1 construct: Bought
T1 sequence: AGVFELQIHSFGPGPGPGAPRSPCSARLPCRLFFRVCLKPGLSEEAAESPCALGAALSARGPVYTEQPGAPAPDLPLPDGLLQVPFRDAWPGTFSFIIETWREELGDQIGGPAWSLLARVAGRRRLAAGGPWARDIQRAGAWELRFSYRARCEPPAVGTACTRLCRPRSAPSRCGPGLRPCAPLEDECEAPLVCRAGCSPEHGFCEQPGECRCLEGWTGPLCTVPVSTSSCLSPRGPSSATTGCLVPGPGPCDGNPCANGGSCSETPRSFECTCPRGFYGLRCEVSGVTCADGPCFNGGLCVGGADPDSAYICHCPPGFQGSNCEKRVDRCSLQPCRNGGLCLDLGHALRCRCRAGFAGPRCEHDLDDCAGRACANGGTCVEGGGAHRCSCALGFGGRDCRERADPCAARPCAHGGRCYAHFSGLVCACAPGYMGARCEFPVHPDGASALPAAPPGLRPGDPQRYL
Assay Method Text: SPR Biacore 8K, Ab captured on Protein A
Kindly state kon for each of the entries shown.
One number for each entry, in M⁻¹ s⁻¹.

[
  {
    "Binder": "hu6L2H12 (antibody, human IgG1, kappa, V domains shown) VH: EVQLVQSGSELKKPGASVKVSCKASGYTFTDYYMNWVRQAPGQGLEWMGIINPYSGVTIYNHKFKGRFALSVDKSSNTAYLQISSLKAEDTAVYYCARQDSLLDYAMDYWGQGTTVTVSS VL: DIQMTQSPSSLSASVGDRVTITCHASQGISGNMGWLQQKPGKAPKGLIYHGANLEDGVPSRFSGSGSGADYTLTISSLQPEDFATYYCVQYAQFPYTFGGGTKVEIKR",
    "Result Units": "M⁻¹ s⁻¹",
    "Reported Measurement": "1.98e+06"
  },
  {
    "Binder": "hu30L3H3 (antibody, human IgG1, kappa, V domains shown) VH: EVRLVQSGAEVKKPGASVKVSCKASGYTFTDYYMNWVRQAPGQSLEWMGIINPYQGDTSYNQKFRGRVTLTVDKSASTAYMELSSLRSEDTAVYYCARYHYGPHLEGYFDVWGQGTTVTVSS VL: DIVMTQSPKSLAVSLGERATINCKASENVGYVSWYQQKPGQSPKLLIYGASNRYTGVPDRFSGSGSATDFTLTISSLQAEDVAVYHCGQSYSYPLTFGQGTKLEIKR",
    "Result Units": "M⁻¹ s⁻¹",
    "Reported Measurement": "1.05e+06"
  }
]

Dear colleague, could you please provide kon for the binders listed below?
1. hu110L1H1 (antibody, human IgG1, kappa, V domains shown) VH: EVQLVQSGAEVKKPGASVKVSCKASGYTFTDYYMNWVRQAPGQRLEWMGIINPYNGGTSYTQKFKGRVTITVDKSASTAYMELSSLRSEDTAVYYCARHFYDSSYLTYSTMDYWGQGTTVTVSS VL: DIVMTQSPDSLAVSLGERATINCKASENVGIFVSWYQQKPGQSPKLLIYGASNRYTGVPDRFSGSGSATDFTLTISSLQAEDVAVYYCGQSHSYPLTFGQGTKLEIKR
2. hu6L4H12 (antibody, human IgG1, kappa, V domains shown) VH: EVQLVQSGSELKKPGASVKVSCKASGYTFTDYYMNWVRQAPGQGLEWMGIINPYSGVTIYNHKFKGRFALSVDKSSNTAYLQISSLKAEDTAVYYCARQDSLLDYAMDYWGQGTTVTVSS VL: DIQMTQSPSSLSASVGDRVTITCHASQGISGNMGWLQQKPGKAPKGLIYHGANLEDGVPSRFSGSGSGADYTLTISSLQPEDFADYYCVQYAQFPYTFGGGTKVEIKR
3. hu110L2H4 (antibody, human IgG1, kappa, V domains shown) VH: EVQLVQSGAEVKKPGASVKVSCKTSGYTFTDYYMNWVRQAPGQSLEWMGIINPYSGGTSYTQKFKGRVTITVDKSASTAYMELSSLRSEDTAVYYCARHFYDSSYLTYSTMDYWGQGTTVTVSS VL: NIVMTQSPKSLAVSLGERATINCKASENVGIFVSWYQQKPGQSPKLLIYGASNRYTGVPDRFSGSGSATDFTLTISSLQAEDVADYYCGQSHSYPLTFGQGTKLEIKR

[614000, "2.06e+06", 496000]
